Entries and their Population Pyknosed Nuclei (%) values follow.
tested on: HEK-293T; experiment: Multiplex assay against HEK293T; assay type: toxicity, cell-based; settings: human, 24 h, 10 µM, compound concentration 10 uM, replicate 2
Endpoint Label: Population Pyknosed Nuclei (%)

INSERT INTO assay_data (compound, endpoint_label, value_units, val) VALUES
  ('COc1cc2ncnc(Nc3ccc(F)c(Cl)c3)c2cc1NC(=O)/C=C/CN1CCCCC1 [DACOMITINIB ANHYDROUS]', 'Population Pyknosed Nuclei (%)', '%', 2),
  ('CCOc1cc(C(=O)N2CCC(N3CCN(C)CC3)CC2)ccc1Nc1ncc2c(n1)N(C1CCCC1)c1ccccc1C(=O)N2C', 'Population Pyknosed Nuclei (%)', '%', 74),
  ('CN1CCC(=C2c3ccccc3CC(=O)c3sccc32)CC1.O=C(O)/C=C/C(=O)O [KETOTIFEN FUMARATE]', 'Population Pyknosed Nuclei (%)', '%', 59);

----------
system: Fibroblast; experiment: Multiplex assay against human fibroblast; type: toxicity, cell-based; conditions: 48 h, 1 µM, compound concentration 1 uM, replicate 2
Please use yes for Population Mitotic Cells (%) under 50% and no for everything else, ties included.

INSERT INTO measurements (molecule, group) VALUES
  ('CN(C)C(=O)C(CCN1CCC(O)(c2ccc(Cl)cc2)CC1)(c1ccccc1)c1ccccc1.Cl [LOPERAMIDE HYDROCHLORIDE]', 'yes'),
  ('O=C1NC(=O)C(c2cnc3ccccn23)=C1c1cn2c3c(cc(F)cc13)CN(C(=O)N1CCCCC1)CC2', 'yes'),
  ('CCOc1cc2ncc(C#N)c(Nc3ccc(OCc4ccccn4)c(Cl)c3)c2cc1NC(=O)/C=C/CN(C)C', 'no'),
  ('CCCS(=O)(=O)c1nc(NC2CC2)cc(-c2ccc3c(ccn3C3CC(C)(C)NC(C)(C)C3)c2)n1', 'yes'),
  ('O=C(Nc1ccc(Cl)cc1)Nc1cccc(-c2cccc(N3CCCC3)n2)c1', 'no'),
  ('Cc1cc(C)c(S(=O)(=O)N(Cc2ccc(-c3cccc(S(C)(=O)=O)c3)cc2)Cc2ccc(C(F)(F)F)o2)c(C)c1', 'yes'),
  ('CCn1c(=O)c(-c2ccc(-c3cncs3)cc2Cl)cc2cnc(Nc3ccc(N4CCN(C)CC4)cc3)nc21', 'yes'),
  ('CCN1CCN(Cc2ccc(Nc3ncc(F)c(-c4cc(F)c5nc(C)n(C(C)C)c5c4)n3)nc2)CC1.CS(=O)(=O)O', 'yes'),
  ('Cc1ccc(C(=O)Nc2cccc(C(F)(F)F)c2)cc1Nc1nc(-c2cccnc2)nc2c1cnn2C', 'yes'),
  ('CN1CCC(=C2c3ccccc3CC(=O)c3sccc32)CC1.O=C(O)/C=C/C(=O)O [KETOTIFEN FUMARATE]', 'no'),
  ('CCOC(=O)c1c(C)[nH]c2ccc3c(c12)CN1CCc2cc(OC)ccc2C1O3 (stereo not given)', 'yes'),
  ('Cl.Oc1ccc2c3c1O[C@H]1c4[nH]c5c(c4C[C@@]4(O)[C@@H](C2)N(CC2CC2)CC[C@]314)C[C@@]1(O)[C@H]2Cc3ccc(O)c4c3[C@@]1(CCN2CC1CC1)[C@H]5O4', 'yes');

----------
system: HEK-293T; test: Multiplex assay against HEK293T; format: toxicity, cell-based; details: human, 24 h, 10 µM, compound concentration 10 uM, replicate 1
Entries and their Population Hoechst High Intensity Objects (%) values follow.
Endpoint Label: Population Hoechst High Intensity Objects (%)

INSERT INTO measurements (compound, measured_on, val) VALUES
  ('CN1CCC(=C2c3ccccc3CC(=O)c3sccc32)CC1.O=C(O)/C=C/C(=O)O [KETOTIFEN FUMARATE]', 'HEK-293T', '11%'),
  ('CCN1CCN(Cc2ccc(Nc3ncc(F)c(-c4cc(F)c5nc(C)n(C(C)C)c5c4)n3)nc2)CC1.CS(=O)(=O)O', 'HEK-293T', '23%'),
  ('COc1ccc(-c2ccc3c(N4CCOCC4)nc(N4C[C@@H](C)O[C@@H](C)C4)nc3n2)cc1CO [Ku-0063794]', 'HEK-293T', '52%'),
  ('CCn1c(=O)c(-c2ccc(-c3cncs3)cc2Cl)cc2cnc(Nc3ccc(N4CCN(C)CC4)cc3)nc21', 'HEK-293T', '71%'),
  ('COc1cc2ncnc(Nc3ccc(F)c(Cl)c3)c2cc1NC(=O)/C=C/CN1CCCCC1 [DACOMITINIB ANHYDROUS]', 'HEK-293T', '6%'),
  ('S=C(NCCCc1c[nH]cn1)NCCCN(Cc1ccc(Cl)c(Cl)c1)c1ccc(Br)cn1', 'HEK-293T', '14%'),
  ('O=C(Nc1ccc(-n2nc(-c3cccnc3)cc2C(F)(F)F)cn1)c1ccc(-c2ccccc2)c(F)c1 [BI 2049]', 'HEK-293T', '13%'),
  ('CCn1cc(-c2ccnc3[nH]c(-c4cccc(CN(C)C)c4)cc23)c(-c2ccc(NC(=O)N(C)C)cc2)n1 [GSK-1070916]', 'HEK-293T', '33%'),
  ('Cc1ccc2nc(NCCN)c3ncc(C)n3c2c1.O=C(O)C(F)(F)F.O=C(O)C(F)(F)F', 'HEK-293T', '20%'),
  ('CCCn1c(=O)c2[nH]c(-c3cnn(Cc4cccc(C(F)(F)F)c4)c3)nc2n(CC)c1=O [GS 6201]', 'HEK-293T', '24%'),
  ('Cl.O=c1c2cccn2c2ccccc2n1CCCN1CCC(c2ccc(Cl)cc2)CC1', 'HEK-293T', '27%'),
  ('CCOc1cc(C(=O)N2CCC(N3CCN(C)CC3)CC2)ccc1Nc1ncc2c(n1)N(C1CCCC1)c1ccccc1C(=O)N2C', 'HEK-293T', '19%'),
  ('C=C1/C(=C\C=C2/CCC[C@]3(C)[C@@H]([C@H](C)/C=C/[C@H](C)C(C)C)CC[C@@H]23)C[C@@H](O)C[C@@H]1O [DOXERCALCIFEROL]', 'HEK-293T', '18%'),
  ('CN1CCN(C(=O)C(C)(C)c2ccc(C(=O)Nc3cn4cc(-c5cc(C(C)(C)C)cc(C(C)(C)C)c5)ccc4n3)cc2)CC1 [T3-CLK-N]', 'HEK-293T', '21%'),
  ('CNc1cc(Oc2cc(C(=O)Nc3cc(N4CCN(C)CC4)cc(C(F)(F)F)c3)ccc2C)ncn1', 'HEK-293T', '26%'),
  ('C=CCn1c(=O)c2cnc(Nc3ccc(N4CCN(C)CC4)cc3)nc2n1-c1cccc(C(C)(C)O)n1 [ADAVOSERTIB]', 'HEK-293T', '18%'),
  ('CCCS(=O)(=O)Nc1ccc(F)c(C(=O)c2c[nH]c3ncc(Cl)cc23)c1F [PLX-4720]', 'HEK-293T', '6%'),
  ('COc1cc(N2CCN(C)CC2)ccc1Nc1ncc2c(n1)N(C)c1ccccc1C(=O)N2C', 'HEK-293T', '10%'),
  ('O=C(Nc1ccc(-c2ccnc(Nc3ccc(N4CCOCC4)cc3)n2)cc1)[C@@H]1CCCN1', 'HEK-293T', '12%');

----------
test system: HEK-293T; experiment: Multiplex assay against HEK293T; assay type: toxicity, cell-based; settings: human, 48 h, 10 µM, compound concentration 10 uM, replicate 2
Entries and their Population Hoechst High Intensity Objects (%) values follow.
Endpoint Label: Population Hoechst High Intensity Objects (%)

INSERT INTO results (molecule, val) VALUES
  ('CCOc1cc2ncc(C#N)c(Nc3ccc(OCc4ccccn4)c(Cl)c3)c2cc1NC(=O)/C=C/CN(C)C [NERATINIB]', 24),
  ('S=C(NCCCc1c[nH]cn1)NCCCN(Cc1ccc(Cl)c(Cl)c1)c1ccc(Br)cn1', 9),
  ('Cl.O=c1c2cccn2c2ccccc2n1CCCN1CCC(c2ccc(Cl)cc2)CC1', 30),
  ('O=C1NC(=O)C(c2cnc3ccccn23)=C1c1cn2c3c(cc(F)cc13)CN(C(=O)N1CCCCC1)CC2 [LY-2090314]', 5),
  ('COc1cc(N2CCN(C)CC2)ccc1Nc1ncc2c(n1)N(C)c1ccccc1C(=O)N2C', 10),
  ('CN1CCC(=C2c3ccccc3CC(=O)c3sccc32)CC1.O=C(O)/C=C/C(=O)O [KETOTIFEN FUMARATE]', 4),
  ('CCCS(=O)(=O)c1nc(NC2CC2)cc(-c2ccc3c(ccn3C3CC(C)(C)NC(C)(C)C3)c2)n1', 9),
  ('CNc1cc(Oc2cc(C(=O)Nc3cc(N4CCN(C)CC4)cc(C(F)(F)F)c3)ccc2C)ncn1', 26),
  ('CCOc1cc(C(=O)N2CCC(N3CCN(C)CC3)CC2)ccc1Nc1ncc2c(n1)N(C1CCCC1)c1ccccc1C(=O)N2C', 10),
  ('Cc1cn(-c2cc(NC(=O)c3ccc(C)c(Nc4nccc(-c5cccnc5)n4)c3)cc(C(F)(F)F)c2)cn1 [NILOTINIB]', 1),
  ('Cc1cc(C)c(S(=O)(=O)N(Cc2ccc(-c3cccc(S(C)(=O)=O)c3)cc2)Cc2ccc(C(F)(F)F)o2)c(C)c1', 1),
  ('C=C1/C(=C\C=C2/CCC[C@]3(C)[C@@H]([C@H](C)/C=C/[C@H](C)C(C)C)CC[C@@H]23)C[C@@H](O)C[C@@H]1O [DOXERCALCIFEROL]', 2),
  ('CN1C2CCC1CC(OC(c1ccc(F)cc1)c1ccc(F)cc1)C2.Cl (stereo not drawn)', 10);
